experiment: Tmax in 12 hr starved C57 mouse at 30 mg/kg, po measured for 0.083 to 24 hrs post-dose by LC-MS-MS analysis; type: ADME, organism-based; settings: in vivo, time 0.083-24 hrs
observed property: Tmax (min)
Write the number in min without appending the unit.

Reported Tmax for `COc1ccc([C@H]2CC(=O)c3cc(OC)cc(OC)c32)cc1` : what is it? 4.98

* * *

assay: Toxicity in C57 mouse assessed as maximum tolerated dose administered orally daily for 14 days; conditions: in vivo, route po, time 14 day
observed property: MTD at 336 h (mg/kg)
Write the number in mg/kg without appending the unit.

Reported MTD at 336 h for `COc1ccc([C@H]2CC(=O)c3cc(OC)cc(OC)c32)cc1` : what is it? 500
